Entries with reported pIC50 on PARP1 enzyme (Homo sapiens (Human), UniProt P09874)
Sequence (P09874 whole entry): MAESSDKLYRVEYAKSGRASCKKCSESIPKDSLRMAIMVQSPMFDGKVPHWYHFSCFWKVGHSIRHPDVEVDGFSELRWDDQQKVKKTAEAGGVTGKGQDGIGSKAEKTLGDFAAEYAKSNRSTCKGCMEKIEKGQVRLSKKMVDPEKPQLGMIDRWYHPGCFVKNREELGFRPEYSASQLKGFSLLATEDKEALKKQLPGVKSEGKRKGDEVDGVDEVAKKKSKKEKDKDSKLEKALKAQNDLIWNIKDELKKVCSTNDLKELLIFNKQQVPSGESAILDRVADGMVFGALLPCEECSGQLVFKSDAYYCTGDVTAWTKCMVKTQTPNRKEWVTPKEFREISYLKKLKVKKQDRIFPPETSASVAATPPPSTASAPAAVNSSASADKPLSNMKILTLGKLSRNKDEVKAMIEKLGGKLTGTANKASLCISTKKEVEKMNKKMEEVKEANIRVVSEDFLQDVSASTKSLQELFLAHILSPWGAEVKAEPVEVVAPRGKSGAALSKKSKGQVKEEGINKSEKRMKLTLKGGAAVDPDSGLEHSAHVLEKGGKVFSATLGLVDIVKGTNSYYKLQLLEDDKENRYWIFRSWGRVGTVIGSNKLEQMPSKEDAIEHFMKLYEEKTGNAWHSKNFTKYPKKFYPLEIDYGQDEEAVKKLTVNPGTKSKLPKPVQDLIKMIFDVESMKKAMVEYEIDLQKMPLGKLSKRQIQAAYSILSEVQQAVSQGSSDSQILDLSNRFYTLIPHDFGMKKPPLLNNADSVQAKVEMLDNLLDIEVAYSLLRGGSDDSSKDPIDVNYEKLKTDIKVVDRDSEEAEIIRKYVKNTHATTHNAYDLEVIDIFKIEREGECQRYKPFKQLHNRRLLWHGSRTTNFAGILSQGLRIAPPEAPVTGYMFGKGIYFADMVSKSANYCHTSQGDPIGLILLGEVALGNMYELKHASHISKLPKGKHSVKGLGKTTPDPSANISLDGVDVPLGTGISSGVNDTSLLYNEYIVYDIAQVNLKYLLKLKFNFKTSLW
As a rule, pIC50 stands for the negative log10 of the concentration, concentration in M.

Answered cases to consult:
C[C@@H]1Nc2cc(F)cc3c(=O)[nH]nc(c23)[C@H]1c1ccc(C#N)cc1F [Compound 0194B] : 7.46
O=c1[nH]nc2c3c(cc(F)cc13)NC(C1(F)CC1)[C@H]2c1ccc(Cl)cc1F (stereo partly shown) [Compound 0255B] : 6.99
CC(C)[C@H]1Nc2cc(F)cc3c(=O)[nH]nc(c23)[C@H]1c1ccccc1Cl [Compound 0222B] : 7.74

Retrieve pIC50 on PARP1 enzyme (Homo sapiens (Human), UniProt P09874); query N#Cc1ccc([C@@H]2CNc3cc(F)cc4c(=O)[nH]nc2c34)cc1F [Compound 0186A] 6.61

Retrieve pIC50 on PARP1 enzyme (Homo sapiens (Human), UniProt P09874); query O=c1[nH]nc2c3c(cc(F)cc13)N[C@H]([C@@H]1CCOC1)[C@H]2c1ccccc1Cl [Compound 0121B] 6.63

Retrieve pIC50 on PARP1 enzyme (Homo sapiens (Human), UniProt P09874); query CN1CCC[C@H]([C@H]2CNc3cc(F)cc4c(=O)[nH]nc2c34)C1 [Compound 0191B] 7.43

Retrieve pIC50 on PARP1 enzyme (Homo sapiens (Human), UniProt P09874); query CC[C@@H]1Nc2cc(F)cc3c(=O)[nH]nc(c23)[C@H]1c1ccccc1Cl [Compound 0206A] 8.05

---

Entries with reported IC50 on PARP1 enzyme (Homo sapiens (Human))
Unit µM implied. Number only.

Answered cases to consult:
O=c1[nH]nc2c3c(cc(F)cc13)N[C@H](C1CCOCC1)[C@H]2c1ccccc1Cl [Compound 0210B] : 0.142
O=c1[nH]nc2c3c(cc(F)cc13)NC[C@@H]2c1ccc(F)cc1F [Compound 0114B] : 0.041
O=c1[nH]nc2c3c(cc(F)cc13)N[C@@H]([C@@H]1CCOC1)[C@@H]2c1ccccc1Cl [Compound 0121D] : 0.043

Attention now turns to another entry.
Retrieve IC50 on PARP1 enzyme (Homo sapiens (Human)); query O=c1[nH]nc2c3c(cc(F)cc13)NC(C1CCN(C3CCC(F)(F)CC3)CC1)C2c1ccc(F)cc1F (stereo not shown) [Compound 0271-6] 0.004

---

Experimental Target: human MDR1 (P-glycoprotein; P-gp) (Homo sapiens (Human))
Sequence (P08183 whole entry): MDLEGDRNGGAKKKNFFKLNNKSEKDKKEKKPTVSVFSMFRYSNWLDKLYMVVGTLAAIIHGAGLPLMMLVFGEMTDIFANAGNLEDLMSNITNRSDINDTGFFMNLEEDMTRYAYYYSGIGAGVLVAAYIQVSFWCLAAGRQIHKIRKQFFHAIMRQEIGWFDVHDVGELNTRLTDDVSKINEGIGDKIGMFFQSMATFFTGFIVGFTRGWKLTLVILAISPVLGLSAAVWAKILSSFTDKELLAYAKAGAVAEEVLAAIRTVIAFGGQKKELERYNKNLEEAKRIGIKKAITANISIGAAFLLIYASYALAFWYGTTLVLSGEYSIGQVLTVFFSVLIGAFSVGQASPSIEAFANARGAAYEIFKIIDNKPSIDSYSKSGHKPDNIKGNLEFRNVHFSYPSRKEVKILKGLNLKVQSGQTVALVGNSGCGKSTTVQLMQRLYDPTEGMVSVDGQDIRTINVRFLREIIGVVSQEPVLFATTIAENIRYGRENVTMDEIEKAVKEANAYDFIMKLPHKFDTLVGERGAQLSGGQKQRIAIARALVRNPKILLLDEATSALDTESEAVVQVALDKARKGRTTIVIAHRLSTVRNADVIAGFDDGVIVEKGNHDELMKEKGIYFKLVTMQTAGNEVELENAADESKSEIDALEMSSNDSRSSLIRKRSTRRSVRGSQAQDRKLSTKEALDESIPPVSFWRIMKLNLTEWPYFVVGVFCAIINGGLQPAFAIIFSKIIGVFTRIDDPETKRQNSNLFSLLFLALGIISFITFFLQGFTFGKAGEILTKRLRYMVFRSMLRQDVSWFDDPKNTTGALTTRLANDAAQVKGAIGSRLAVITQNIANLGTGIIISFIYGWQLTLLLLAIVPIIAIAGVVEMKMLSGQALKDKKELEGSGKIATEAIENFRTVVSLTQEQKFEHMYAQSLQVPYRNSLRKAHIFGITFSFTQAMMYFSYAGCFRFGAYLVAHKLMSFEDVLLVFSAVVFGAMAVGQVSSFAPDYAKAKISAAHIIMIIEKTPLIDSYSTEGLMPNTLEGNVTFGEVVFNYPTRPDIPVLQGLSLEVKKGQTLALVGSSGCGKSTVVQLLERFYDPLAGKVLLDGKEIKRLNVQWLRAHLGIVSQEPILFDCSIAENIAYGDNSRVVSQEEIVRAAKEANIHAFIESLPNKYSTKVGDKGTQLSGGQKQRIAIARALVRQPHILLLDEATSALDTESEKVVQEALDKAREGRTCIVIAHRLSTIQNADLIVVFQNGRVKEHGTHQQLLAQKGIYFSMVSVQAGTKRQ
Procedure Text: bi-directional MDCK-MDR1 permeability assay
Type: in vitro ADME
Conditions Used: human, MDCK-MDR1; efflux ratio B→A/A→B; read-out: MDCK-MDR1 ER
Measured Parameter: efflux ratio
Form: value (number only, do not type unit).

Answered cases to consult:
O=c1[nH]nc2c3c(cc(F)cc13)NC[C@H]2c1ccc(Cl)c(F)c1 [Compound 0188A] : 0.541
CN1CCC([C@@H]2Nc3cc(F)cc4c(=O)[nH]nc(c34)[C@H]2c2ccccc2Cl)CC1 [Compound 0116B] : 30.8
C[C@@H]1Nc2cc(F)cc3c(=O)[nH]nc(c23)[C@H]1c1ccc(F)cc1F [Compound 0174B] : 0.654
O=c1[nH]nc2c3c(cc(F)cc13)NC[C@@H]2c1ccccc1Cl [Compound 0120B] : 0.612

Provide one value: measured efflux ratio of O=c1[nH]nc2c3c(cc(F)cc13)NC[C@H]2c1ccccc1Cl [Compound 0120A] 0.655
